Entry source: patent US8569292B2

target: CYP2C9 (Homo sapiens); construct: purchased Invitrogen 2859; host or cells: insect cells infected with baculovirus (microsomes); experiment: Biological Test Example 9: CYP2C9 inhibition (Invitrogen kit, fluorogenic OOMR); type: in vitro ADME

# Chemical smiles, IC50
rows = [
    ("C[C@@H](c1ccc(-c2ccc(F)cn2)cc1)N1CC[C@](CCCO)(c2ccccc2)OC1=O", "6.1 µM"),
    ("Cc1cc(-c2ccc([C@H](C)N3CC[C@](CC(C)(C)O)(c4ccc(F)cc4)OC3=O)cc2)cc(C)[n+]1[O-]", "9.1 µM"),
    ("Cc1ccc(-c2ccc([C@H](C)N3CC[C@](CC(C)(C)O)(c4ccccc4)OC3=O)cc2)nn1", "> 30 µM"),
]

* * *

biological target: 11β-HSD1 (Homo sapiens); assay: Biological Test Example 4: microsomal 11β-HSD1 in the presence of 50% human plasma; details: IC50 in Test Example 4 divided by IC50 in Test Example 1
Tick Satisfied if Shift is 6 or greater. Tick Not satisfied if Shift is less than 6.

# Chemical smiles, Tested on, Class label
measured = [
    ("Cc1cc(-c2ccc([C@H](C)N3CC[C@](CC(C)(C)O)(c4ccc(F)cc4)OC3=O)cc2)cc(C)[n+]1[O-]", "11β-HSD1 (Homo sapiens)", "Not satisfied"),
    ("CC[C@@H](c1ccc(-c2cc(C)[n+]([O-])c(C)c2)cc1)N1CC[C@](CC(C)(C)O)(c2ccccc2)OC1=O", "11β-HSD1 (Homo sapiens)", "Not satisfied"),
    ("Cc1cc(-c2ccc([C@H](C)N3CC[C@](CCN(C)S(C)(=O)=O)(c4ccccc4)OC3=O)cc2)ccn1", "11β-HSD1 (Homo sapiens)", "Satisfied"),
    ("C[C@@H](c1ccc(-c2cncc(Cl)c2)cc1)N1CC[C@](CCCO)(c2ccc(F)cc2)OC1=O", "11β-HSD1 (Homo sapiens)", "Satisfied"),
    ("C[C@@H](c1ccc(-c2ccc(C3CC3)nn2)cc1)N1CC[C@](CC(C)(C)O)(c2ccccc2)OC1=O", "11β-HSD1 (Homo sapiens)", "Not satisfied"),
    ("C[C@@H](c1ccc(-c2ccc(C(C)(C)O)nn2)cc1)N1CC[C@](CC(C)(C)O)(c2ccccc2)OC1=O", "11β-HSD1 (Homo sapiens)", "Not satisfied"),
    ("Cc1cc(-c2ccc([C@H](C)N3CC[C@](CCCO)(c4ccc(F)cc4)OC3=O)cc2)nc(C)n1", "11β-HSD1 (Homo sapiens)", "Satisfied"),
]

* * *

Quick reference: inhibition at 0.1 µM of the listed items.
molecular target: 11β-HSD1 (Homo sapiens, UniProt P28845); experiment: biochemical; conditions: read-out: Average % inhibition at 100 nM
Sequence (P28845 whole entry): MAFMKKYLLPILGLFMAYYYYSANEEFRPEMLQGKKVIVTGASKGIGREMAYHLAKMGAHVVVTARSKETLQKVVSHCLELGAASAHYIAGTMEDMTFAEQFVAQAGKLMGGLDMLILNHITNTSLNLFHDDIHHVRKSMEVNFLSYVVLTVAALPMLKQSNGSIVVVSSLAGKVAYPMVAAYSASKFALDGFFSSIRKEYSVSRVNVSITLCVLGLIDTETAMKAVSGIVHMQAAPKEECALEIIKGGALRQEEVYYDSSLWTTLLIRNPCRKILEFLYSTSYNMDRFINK

# Chemical smiles, Reading unit, inhibition at 0.1 µM
rows = [
    ("C[C@@H](c1ccc(-c2cccnc2)cc1)N1CC[C@](CCC(N)=O)(c2ccccc2)OC1=O", "%", 91),
    ("C[C@@H](c1ccc(-c2ccc(C#N)cn2)cc1)N1CC[C@](CCCO)(c2ccc(F)cc2)OC1=O", "%", 100),
    ("C[C@@H](c1ccc(-c2ccccn2)cc1)N1CC[C@](CC(C)(C)O)(c2ccc(F)cc2)OC1=O", "%", 97.4),
    ("C[C@@H](c1ccc(-c2ccc(C(=O)NC3CC3)cn2)cc1)N1CC[C@](CC(C)(C)C#N)(c2ccccc2)OC1=O", "%", 99),
    ("C[C@@H](c1ccc(-c2ccc(S(C)(=O)=O)nc2)cc1)N1CC[C@](CC(C)(C)O)(c2ccccc2)OC1=O", "%", 96.4),
    ("CC[C@@H](c1ccc(-c2cc(C)[n+]([O-])c(C)c2)cc1)N1CC[C@](CC(C)(C)O)(c2ccccc2)OC1=O", "%", 90.7),
    ("C[C@@H](c1ccc(-c2cc(C#N)ccn2)cc1)N1CC[C@](CC(C)(C)O)(c2ccccc2)OC1=O", "%", 99.4),
    ("C[C@@H](c1ccc(-c2cnccn2)cc1)N1CC[C@](CC(C)(C)O)(c2ccccc2)OC1=O", "%", 97.9),
    ("C[C@@H](c1ccc(-c2ncc(F)cn2)cc1)N1CC[C@](CC(C)(C)O)(c2ccccc2)OC1=O", "%", 92.1),
    ("C[C@@H](c1ccc(-c2ccc(C(C)(C)C)nn2)cc1)N1CC[C@](CC(C)(C)O)(c2ccccc2)OC1=O", "%", 96.3),
    ("Cc1nnc(CC[C@]2(c3ccccc3)CCN([C@@H](C)c3ccc(-c4ccc(C#N)cn4)cc3)C(=O)O2)o1", "%", 72.4),
    ("COc1ccc(-c2ccc([C@H](C)N3CC[C@](CCCO)(c4ccc(F)cc4)OC3=O)cc2)cn1", "%", 99),
    ("C[C@@H](c1ccc(-c2cccc(OC3CCCC3)n2)cc1)N1CC[C@](CC(C)(C)O)(c2ccccc2)OC1=O", "%", 89.7),
    ("COc1ccc(-c2ccc([C@H](C)N3CC[C@](CC(C)(C)O)(c4ccc(F)cc4)OC3=O)cc2)cn1", "%", 99.6),
    ("Cc1ccc(-c2ccc([C@H](C)N3CC[C@](CCCO)(c4ccc(F)cc4)OC3=O)cc2)c(C)n1", "%", 102),
]

* * *

Quick reference for pIC50 among some molecules
target: CYP2C9 (Homo sapiens, UniProt P11712); construct: purchased Invitrogen 2859; host or cells: insect cells infected with baculovirus (microsomes); assay: Biological Test Example 7: CYP2C9 inhibition (naproxen O-demethylation); type: in vitro ADME
Sequence (P11712 whole entry): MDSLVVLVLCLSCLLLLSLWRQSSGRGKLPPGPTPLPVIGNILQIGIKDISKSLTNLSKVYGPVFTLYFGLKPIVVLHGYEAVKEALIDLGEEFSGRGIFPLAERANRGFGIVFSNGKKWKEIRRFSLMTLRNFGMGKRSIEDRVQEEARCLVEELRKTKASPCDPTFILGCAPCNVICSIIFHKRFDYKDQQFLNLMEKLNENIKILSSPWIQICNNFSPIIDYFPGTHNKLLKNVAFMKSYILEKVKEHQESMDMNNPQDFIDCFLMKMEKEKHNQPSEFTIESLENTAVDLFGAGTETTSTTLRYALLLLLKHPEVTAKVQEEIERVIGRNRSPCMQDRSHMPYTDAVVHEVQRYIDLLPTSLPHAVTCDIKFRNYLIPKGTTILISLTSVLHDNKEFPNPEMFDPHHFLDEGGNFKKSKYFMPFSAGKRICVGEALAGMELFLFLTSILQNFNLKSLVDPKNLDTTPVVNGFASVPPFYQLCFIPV
pIC50: −log10 of the molar value.

# Molecule, Lt gt eq, pIC50
measured = [
    ("C[C@@H](c1ccc(-c2cnc(C(=O)NC3CC3)nc2)cc1)N1CC[C@](CC(C)(C)C#N)(c2ccccc2)OC1=O [EXAMPLE 16]", "<", 4.30),
    ("Cc1nnc(-c2ccc([C@H](C)N3CC[C@](CC(C)(C)O)(c4ccccc4)OC3=O)cc2)s1 [EXAMPLE 172]", "=", 4.42),
    ("COC[C@]1(c2ccccc2)CCN([C@@H](C)c2ccc(-c3ccc(C)nn3)cc2)C(=O)O1 [EXAMPLE 167]", "=", 4.53),
    ("C[C@@H](c1ccc(-c2ccccn2)cc1)N1CC[C@](CCCNS(C)(=O)=O)(c2ccc(F)cc2)OC1=O [EXAMPLE 61]", "=", 4.64),
]

* * *

biological target: 11β-HSD1 (Homo sapiens); experiment: Biological Test Example 4: microsomal 11β-HSD1 in the presence of 50% human plasma; conditions: IC50 in Test Example 4 divided by IC50 in Test Example 1
We begin with a simple list: items and their reported Shift.

# Chemical smiles, Shift
data = [
    ("COc1ccc(-c2ccc([C@H](C)N3CC[C@](CCCNS(C)(=O)=O)(c4ccccc4)OC3=O)cc2)cn1", 11.0),
    ("C=CC[C@]1(c2ccc(F)cc2)CCN([C@@H](C)c2ccc(-c3cncc(Cl)c3)cc2)C(=O)O1", 38.4),
    ("Cc1ccc(-c2ccc([C@H](C)N3CC[C@](CC(C)(C)C#N)(c4ccccc4)OC3=O)cc2)nn1", 2.3),
    ("Cc1cc(-c2ccc([C@H](C)N3CC[C@](CC(C)(C)O)(c4ccc(F)cc4)OC3=O)cc2)cc[n+]1[O-]", 2.6),
    ("C=CC[C@]1(c2ccc(F)cc2)CCN([C@@H](C)c2ccc(-c3cncc(F)c3)cc2)C(=O)O1", 40.6),
    ("Cc1nc(C)c(-c2ccc([C@H](C)N3CC[C@](CCCO)(c4ccc(F)cc4)OC3=O)cc2)s1", 8.9),
    ("C[C@@H](c1ccc(-c2ccc(C(=O)NC3CC3)cn2)cc1)N1CC[C@](CC(C)(C)C#N)(c2ccccc2)OC1=O", 3.8),
]

* * *

molecular target: 11β-HSD1 (Homo sapiens, UniProt P28845); assay: Biological Test Example 4: microsomal 11β-HSD1 in the presence of 50% human plasma

# Compound, IC50, nM
rows = [
    ("COc1cc(-c2ccc([C@H](C)N3CC[C@](CCCO)(c4ccc(F)cc4)OC3=O)cc2)ccn1 [EXAMPLE 147]", 7.9),
    ("C[C@@H](c1ccc(-c2ccccn2)cc1)N1CC[C@](CC(C)(C)O)(c2ccccc2)OC1=O [EXAMPLE 86]", 6.4),
    ("Cc1cc(-c2ccc([C@H](C)N3CC[C@](CCCNS(C)(=O)=O)(c4ccccc4)OC3=O)cc2)ccn1 [EXAMPLE 99]", 7.9),
    ("C[C@@H](c1ccc(-c2cccnc2)cc1)N1CC[C@](CCCO)(c2ccc(F)cc2)OC1=O [EXAMPLE 197]", 5.7),
    ("C[C@@H](c1ccc(-c2cnc(C(=O)NC(C)(C)C)nc2)cc1)N1CC[C@](CC(C)(C)O)(c2ccccc2)OC1=O [EXAMPLE 17]", 5.7),
    ("Cc1nc(-c2ccc([C@H](C)N3CC[C@](CC(C)(C)O)(c4ccccc4)OC3=O)cc2)ccc1C#N [EXAMPLE 1]", 7.3),
    ("Cc1cc(-c2ccc([C@H](C)N3CC[C@](CCCNS(C)(=O)=O)(c4ccc(F)cc4)OC3=O)cc2)ccn1 [EXAMPLE 80]", 5.5),
]
